assay: Inhibition of potato 5-lipoxygenase by enzyme immunoassay; parameters: species or system Solanum tuberosum
pIC50: −log10 of the molar value.
attribute.measured: pIC50

| compound | result |
| --- | --- |
| COc1ccc2c(c1)c(CC(=O)O)c(C)n2C(=O)c1ccn(C(F)F)c(=O)c1 | < 4.00 |
| COc1ccc2c(c1)c(CC(=O)O)c(C)n2Cc1ccn(C(F)F)c(=O)c1 | < 4.00 |
| CC(Cc1ccc(O)c(O)c1)C(C)Cc1ccc(O)c(O)c1 (centres undefined) [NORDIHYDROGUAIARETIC ACID] | 4.89 |

Consider the additional compound presented here.
Check the records and state pIC50 for COc1ccc2c(c1)c(CC(=O)O)c(C)n2Cc1ccc(=O)n(C(F)F)c1
< 4.00
